Exercise: for every item that follows, state its recorded kon.
# study_target: T1, cMetECDHis (human, UniProt P08581 25-932, limits assumed, biotinylated in the cross-block ELISA of Example 17)
# T1 construct: Expressed in HEK-293F cells; also called soluble cMetECDHis; biotinylated cMetECDHis
# assay_details: BLI (Octet); antibody captured, cMetECDHis in solution
# Method: Antibody binding to cMetECDHis was analyzed by means of Bio-Layer Interferometry (BLI) technology on the Octet System (Fortebio, Menlo Park, USA). […] The difference in reflection of light (AA, nm) of the biosensor surface due to the binding of cMetECDHis was measured in real time during approximately 10 minutes and was used by the Octet software (V4.0, Fortebio) to calculate the association constant (kₐ [1/M×s]). […]
Give bare numbers, in M⁻¹ s⁻¹.

- binder: "anti-c-Met HuMab 181 (IgG1) (antibody, V domains shown, also called TH1016-181; PC1016-181) VH: QVQLVQSGAEVKKPGASVKVSCKASGYTFTSYGISWVRQAPGQGLEWMGWISTYNGYTNYAQKLQGRVTMTTDTSTSTAYMELRSLRSDDTAVYYCARDLRGTAYFDYWGQGTLVTVSS VL: DIQMTQSPSSVSASVGDRVTITCRASQGISNWLAWYQHKPGKAPKLLIYAASSLLSGVPSRFSGSGSGTDFTLTISSLQPEDFATYYCQQANSFPITFGQGTRLEIK"
  measured_result: 237000

For the 2 binders below, give their kon values.
1. anti-c-Met HuMab 035 (IgG1) (antibody, V domains shown, also called P1016-035; TH1016-035-D09) VH: EVQLVQSGAEVKKPGESLKISCKGSGYSFTSYWIGWVRQMPGKGLEWMGIIYPGDSDTRYSPSFQGQVTISADKSISTAYLQWNSLKASDTAMYYCARQEITGEFDYWGQGTLVTVSS VL: AIQLTQSPSSLSASVGDRVTITCRASQGISSALAWYQQKPGKAPKLLIYDASSLESGVPSRFSGSGSGTDFTLTISSLQPEDFATYYCQQFNSYPMYTFGQGTKLEIK
2. anti-c-Met HuMab 008 (IgG1) (antibody, V domains shown, also called TH1016-008; PC1016-008) VH: EVQLVQSGAEVKKPGESLKISCKGSGYSFTSYWIGWVRQMPGKGLEWMGIIYPGDSETRYSPSFQGQVTISADKSISTAYLQWSSLKASDTAMYYCARQEITGEFDYWGQGTLVTVSS VL: AIQLTQSPSSLSASVGDRVTITCRASQGISSALAWYQQKPGKAPKLLIYDASSLESGVPSRFSGSGSGTDFTLTISSLQPEDFATYYCQQFNSYPRTFGQGTKVEIK

1: 264000; 2: 308000

Measured values drawn from patent US20150329642A1 for this set.
